Tested on: human ES motor neurons carrying the ALS-causing SOD1^A4V mutation
Assay: cells
Assay type: cell-based
Details: Homo sapiens, Neuron, 72 h, CPA (33 μM) + compound (1 μM); read-out: Motor Neuron Survival, % untreated
viability at 1 µM: recorded values

CHEM_SMILES | viability at 1 µM
COc1ccc(COc2ccc(-c3c[nH]c4ncc(-c5ccc(CN6CCN(C)CC6)cc5)cc34)cc2)cc1 | 95.9%
CN1CCN(Cc2ccc(-c3cnc4[nH]cc(-c5cccc6c5oc5ccccc56)c4c3)cc2)CC1 | 7.84%
CN1CCN(Cc2ccc(-c3cnc4[nH]cc(-c5ccncc5)c4c3)cc2)CC1 | 36.3%
CN1CCN(Cc2ccc(-c3cnc4[nH]cc(-c5ccc6cnn(C)c6c5)c4c3)cc2)CC1 | 73.3%
CN1CCN(Cc2ccc(-c3cnc4[nH]cc(-c5cccc6[nH]ncc56)c4c3)cc2)CC1 | 112%
